# Assay type: in vivo, healthy Chinese male subjects
# Cond: male, human, plasma, po, 150 mg
Reported Endpoint: Tmax (h)
Give the quantity in h, number only.

Find the recorded Tmax belonging to O=C(c1cc(Cc2n[nH]c(=O)c3ccccc23)ccc1F)N1CCN(C(=O)C2CC2)CC1 [olaparib] and report it. 1.5
